Examples of compounds with documented MIC follow.
- Tested on: Streptococcus pyogenes
- procedure-text: Antibacterial activity against Streptococcus pyogenes 308A
- Format: functional

{"columns": ["compound", "reported-relation", "MIC, µg/mL"],
 "data": [
  ["CC(O)[C@H]1C(=O)N2C(C(=O)O)=C(SCCNC=N)C[C@H]12 (single isomer, unassigned) [IMIPENEM ANHYDROUS]", "<", 0.01],
  ["CO/N=C(\\CNS(C)(=O)=O)[C@@H]1C[C@H](SC2=C(C(=O)O)N3C(=O)[C@H]([C@@H](C)O)[C@H]3[C@H]2C)CN1", "=", 0.098],
  ["CNS(=O)(=O)NC/C(=N\\OC)[C@@H]1C[C@H](SC2=C(C(=O)O)N3C(=O)[C@H]([C@@H](C)O)[C@H]3[C@H]2C)CN1", "<", 0.01],
  ["CO/N=C(\\CNS(=O)(=O)N(C)C)[C@@H]1C[C@H](SC2=C(C(=O)O)N3C(=O)[C@H]([C@@H](C)O)[C@H]3[C@H]2C)CN1", "=", 0.025],
  ["CCS(=O)(=O)NC/C(=N\\OC)[C@@H]1C[C@H](SC2=C(C(=O)O)N3C(=O)[C@H]([C@@H](C)O)[C@H]3[C@H]2C)CN1", "=", 0.195],
  ["C[C@@H](O)[C@H]1C(=O)N2C(C(=O)O)=C(S[C@@H]3CN[C@H](C(=O)N(C)C)C3)[C@H](C)[C@H]12", "=", 0.013],
  ["CCNS(=O)(=O)NC/C(=N\\OC)[C@@H]1C[C@H](SC2=C(C(=O)O)N3C(=O)[C@H]([C@@H](C)O)[C@H]3[C@H]2C)CN1", "<", 0.01],
  ["CCCNS(=O)(=O)NC/C(=N\\OC)[C@@H]1C[C@H](SC2=C(C(=O)O)N3C(=O)[C@H]([C@@H](C)O)[C@H]3[C@H]2C)CN1", "=", 0.049]
]}
